System: ALS (acetolactate syntase)
assay_method_text: ALS enzyme assay (Test 1)
Type: biochemical, pea
measurement_context: 1,000 ppm (0.5 mg/0.5 ml)
Protocol: To determine the selectivity in enzyme level between crops and weeds, and ALS enzyme assay was conducted using pea as a representative of broadleaf crops and barnyardgrass as a representative of narrowleaf weeds. […] Next, the reaction-terminated liquid mixture was transferred into a thermostat water bath controlled at 60° C. and was heated for 15 minutes. […] After the above operation, the absorbance of the test solution at 525 nm was measured by a spectrophotometer (Absorbance 1 of Test Compound). […]
# key: entry, value: Inhibitory activity (%) Pea
Answer in %, number only, no unit symbol.

Task item: Which Inhibitory activity (%) Pea reading was recorded for the compound COc1cc(OC)nc(Oc2ccccc2C=NOCC=Cc2cccc(Cl)c2)n1 ?
Reply: 8

Task item: Which Inhibitory activity (%) Pea reading was recorded for the compound CC#CCON=Cc1ccccc1Oc1nc(OC)cc(OC)n1 ?
Reply: 0

Task item: Which Inhibitory activity (%) Pea reading was recorded for the compound COc1cc(OC)nc(Oc2ccccc2C=NOCc2cccc(C)c2)n1 ?
Reply: 0

Task item: Which Inhibitory activity (%) Pea reading was recorded for the compound COc1cc(OC)nc(Oc2ccccc2C=NOC(C)c2ccccc2)n1 (stereo not drawn) ?
Reply: 0

Task item: Which Inhibitory activity (%) Pea reading was recorded for the compound COc1cc(OC)nc(Oc2ccccc2C=NOC2CCCCC2)n1 ?
Reply: 0

New cases:
Task item: Which Inhibitory activity (%) Pea reading was recorded for the compound COC(=O)c1ccccc1Oc1nc(OC)cc(OC)n1 [A, reference compound] ?
Reply: 72

Task item: Which Inhibitory activity (%) Pea reading was recorded for the compound COc1cc(OC)nc(Oc2ccccc2C=NOCC=Cc2cccc(Cl)c2Cl)n1 ?
Reply: 0

Task item: Which Inhibitory activity (%) Pea reading was recorded for the compound COc1cc(OC)nc(Oc2ccccc2C=NOCC=Cc2ccccc2C)n1 ?
Reply: 0

---

Test system: green foxtail
assay_method_text: Upland foliar application test (Test 3)
Format: in vivo
measurement_context: 30 g ai/a, foliar spray at 2-3 leaves, 30th day
# key: entry, value: Herbicidal effects Green foxtail

Task item: Which Herbicidal effects Green foxtail reading was recorded for the compound COc1cc(OC)nc(Oc2ccccc2C=NOCC#Cc2ccccc2)n1 ?
Reply: 5 (0-5 (Death))

Task item: Which Herbicidal effects Green foxtail reading was recorded for the compound COc1cc(OC)nc(Oc2ccccc2C=NOCC=Cc2ccc(Cl)c(Cl)c2)n1 ?
Reply: 4 (6-10 (Severe damages))

Task item: Which Herbicidal effects Green foxtail reading was recorded for the compound COc1cc(OC)nc(Oc2ccccc2C=NOCc2ccc(C)cc2)n1 ?
Reply: 5 (0-5 (Death))

New cases:
Task item: Which Herbicidal effects Green foxtail reading was recorded for the compound COc1cc(OC)nc(Oc2ccccc2C=NOCC=C(C)C)n1 ?
Reply: 5 (0-5 (Death))

Task item: Which Herbicidal effects Green foxtail reading was recorded for the compound CCc1ccc(C=CCON=Cc2ccccc2Oc2nc(OC)cc(OC)n2)cc1 ?
Reply: 5 (0-5 (Death))

Task item: Which Herbicidal effects Green foxtail reading was recorded for the compound CC#CCON=Cc1ccccc1Oc1nc(OC)cc(OC)n1 ?
Reply: 4 (6-10 (Severe damages))

Task item: Which Herbicidal effects Green foxtail reading was recorded for the compound COc1cc(OC)nc(Oc2ccccc2C=NOCC=Cc2cccc(C)c2)n1 ?
Reply: 5 (0-5 (Death))

Task item: Which Herbicidal effects Green foxtail reading was recorded for the compound COc1cc(OC)nc(Oc2ccccc2C=NOCC=Cc2ccc(C)cc2)n1 ?
Reply: 5 (0-5 (Death))
